- Test Target: Adenosine A2 receptor (Rattus norvegicus, UniProt P29276+P30543)
- Experimental Protocol: Binding affinity against Adenosine A2 receptor in rat striatal membranes using [3H]5'-(N-ethylcarboxamido)-adenosine (NECA) as the ligand
- Assay type: cell membranes, Striatum, Membrane
Measurement Type: Ki (µM)

Below, each entry is followed by its recorded Ki result.
>>> print(df.to_string())
                            molecule_smiles  measurement_type  measured_number
0             C#CCn1c(=O)[nH]c2ncn(C)c2c1=O                Ki               16
1  CC(=O)Cn1c(=O)[nH]c2[nH]c(C3CCCC3)nc2c1=O                Ki              9.7
2                Cn1c(=O)[nH]c2ncn(C)c2c1=O                Ki               32
3             C=CCn1c(=O)[nH]c2[nH]cnc2c1=O                Ki               10
4  CCCn1c(=O)[nH]c2nc(-c3ccc(S(=O)(=O)O)cc3)[nH]c2c1=O                Ki               24

I. C#CCn1c(=O)[nH]c2[nH]c(C3CCCCC3)nc2c1=O
II. CC(C)n1c(=O)[nH]c(=O)c2[nH]cnc21
III. CCCn1c(=O)n(C)c(=O)c2[nH]cnc21
IV. O=c1[nH]c2[nH]cnc2c(=O)n1C1CCCC1
V. CCCn1c(=O)[nH]c2[nH]c(C3CCCC3)nc2c1=O
query: Ascending sort, Ki. Reply with the item labels sorted in the order that was asked for.
result: V, I, IV, III, II

###

- Test Target: Adenosine A2 receptor (Rattus norvegicus) (UniProt P29276+P30543)
- Assay Conditions: Striatum, Membrane, at 250 µM
- Description: Binding affinity at Adenosine A2 receptor in rat striatal membrane using [3H]- 5'-N-ethylcarboxamidoadenosine (NECA) at 250 uM
Measurement Type: inhibition (%)

>>> print(df.to_string())
                           molecule_smiles  unit_annotation  measured_number
0  Cn1c(=O)[nH]c(=O)c2[nH]c(-c3ccccc3)nc21                %               17
1           CCCn1cnc2c(=O)[nH]c(=O)[nH]c21                %               15

a. Cn1c(=O)[nH]c(=O)c2[nH]c(-c3ccc(S(=O)(=O)O)cc3)nc21
b. CCCn1c(=O)[nH]c(=O)c2[nH]c(-c3ccc(S(=O)(=O)O)cc3)nc21
query: Pick the one with the larger inhibition: a vs b Respond using the label that marks the chosen record.
result: b

###

- Test Target: Adenosine receptor A1 (Rattus norvegicus)
- Sequence (P25099 whole entry): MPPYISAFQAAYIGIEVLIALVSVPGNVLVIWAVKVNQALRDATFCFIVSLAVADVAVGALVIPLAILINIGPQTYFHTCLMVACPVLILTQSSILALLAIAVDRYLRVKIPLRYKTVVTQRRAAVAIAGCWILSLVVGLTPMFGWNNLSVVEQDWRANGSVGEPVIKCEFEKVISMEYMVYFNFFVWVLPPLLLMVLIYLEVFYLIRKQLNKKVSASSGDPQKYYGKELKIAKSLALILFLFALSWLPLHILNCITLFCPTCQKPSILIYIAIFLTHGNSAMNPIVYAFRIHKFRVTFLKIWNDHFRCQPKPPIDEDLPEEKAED
- Experimental Protocol: Binding affinity at A1 adenosine receptor in rat brain cortical membrane using [3H]- N6-R-phenylisopropyladenosine (R-PIA)
- Assay type: cell membranes
Measurement Type: Ki (nM)

A. O=c1[nH]c2nc(-c3ccccc3)[nH]c2c(=O)n1Cc1cccc(Cl)c1
B. O=c1[nH]c(=O)c2[nH]c(-c3ccccc3)nc2[nH]1
query: Pick the one with the larger Ki: A vs B Respond using the label that marks the chosen record.
result: B
(B: 2500 nM, A: 68 nM)
